Field: IC50. Provide a value for each of the compounds that follow.
- TARGET_SYSTEM: mouse CD38 (Mus musculus, UniProt P56528)
- Sequence (P56528 whole entry): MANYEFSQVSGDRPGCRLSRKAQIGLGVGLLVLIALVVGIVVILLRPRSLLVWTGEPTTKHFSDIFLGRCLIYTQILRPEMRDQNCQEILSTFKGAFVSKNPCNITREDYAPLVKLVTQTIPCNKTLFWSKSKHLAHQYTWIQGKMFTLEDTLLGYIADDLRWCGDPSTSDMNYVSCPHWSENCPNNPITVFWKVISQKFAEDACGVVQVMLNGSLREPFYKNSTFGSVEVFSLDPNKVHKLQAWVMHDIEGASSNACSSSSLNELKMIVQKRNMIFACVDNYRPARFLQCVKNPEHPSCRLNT
- PROCEDURE_DETAILS: mouse recombinant CD38 enzyme assay (hydrolysis of NAD+)
- CONDITIONS_USED: read-out: mCD38 BioChem IC50
Answer by giving the amount and then stating its unit.

Can you share its IC50? I mean this compound: O=C(Nc1cccnc1)c1ccnc(-n2ccnc2)c1 433 nM

Can you share its IC50? I mean this compound: O=C(N[C@H]1C[C@H](c2ccnc(C(F)(F)F)c2)C1)c1nccc(-n2ccnc2)n1 96.3 nM

Can you share its IC50? I mean this compound: COCCO[C@H]1CC[C@H](NC(=O)c2nc(C)cc(-c3cncn3C)n2)CC1 8.1 nM

Can you share its IC50? I mean this compound: CC(C)c1cc(C(=O)N[C@H]2CC[C@H](C(F)F)CC2)nc(-n2ccnc2)n1 47 nM

Can you share its IC50? I mean this compound: COc1ncc(-c2cncn2C)nc1C(=O)N[C@H]1CC[C@H](OC)CC1 62.4 nM

Can you share its IC50? I mean this compound: COc1cc(C(=O)Nc2ccc(C(F)F)nc2)nc(-c2cncs2)c1 82 nM

Can you share its IC50? I mean this compound: CO[C@H]1CC[C@H](NC(=O)c2nc(-c3cncn3C)cc(C3CC3)n2)CC1 12.1 nM
